Quick reference: pIC50 of the listed items.
molecular target: human C5aR(CD88) (Homo sapiens); construct: expressed in transfected cells; host or cells: rat basophilic leukemia cells (RBL); experiment: Determination of the IC50 value in an enzyme release assay (functional assay, antagonistic activity); format: cell-based; conditions: antagonistic activity; IC50 group in enzyme release assay, RBL cells expressing human C5aR(CD88); read-out: activity (group)
pIC50: −log10 of the molar value. Positions of bridges follow the written chain, without caps; N, C: chain ends. Non-standard residues stand in square brackets, D forms with d. Residues, ends and D or L forms follow the SMILES beside them. *: point of attachment. Phe(4-tBu) = CC(C)(C)c1ccc(C[C@H](N)C(=O)O)cc1; Phe(Nα-CONH2) = NC(=O)N[C@@H](Cc1ccccc1)C(=O)*; Phe(2-CF3) = N[C@@H](Cc1ccccc1C(F)(F)F)C(=O)O; Bta = N[C@@H](Cc1csc2ccccc12)C(=O)O; Hyp = O=C(O)[C@@H]1C[C@@H](O)CN1; d(hLeu) = CC(C)CC[C@@H](N)C(=O)O; 2Thi = N[C@@H](Cc1cccs1)C(=O)O; Cit = NC(=O)NCCC[C@H](N)C(=O)O; dCha = N[C@H](CC1CCCCC1)C(=O)O; Orn = NCCC[C@H](N)C(=O)O; Aze = O=C(O)[C@@H]1CCN1; Nva = CCC[C@H](N)C(=O)O

1) CCC[C@@H]1NC(=O)[C@H](Cc2c[nH]c3ccccc23)NC(=O)[C@@H](CCC(C)C)NC(=O)[C@@H]2C[C@@H](O)CN2C(=O)[C@@H](NC(=O)[C@@H](N)Cc2ccccc2)CCCNC1=O [Compound 370, H-Phe-[Orn-Hyp-hle-Trp-Nva]] (H-F[Orn][Hyp][d(hLeu)]W[Nva]; lactam 2-C): 6.70 to 7.30

Qu. # return recorded pIC50 for input CC(=O)N[C@@H](Cc1ccccc1)C(=O)N[C@@H](CCCN)C(=O)N1CCC[C@H]1C(=O)N[C@H](CC1CCCCC1)C(=O)N[C@@H](Cc1c[nH]c2ccccc12)C(=O)N[C@@H](Cc1ccc(C(C)(C)C)cc1)C(N)=O [Compound 68, Ac-Phe-Orn-Pro-cha-Trp-Eap-NH2] (Ac-F[Orn]P[dCha]W[Phe(4-tBu)]-NH2)
Ans. 5.70 to 6.70

Qu. # return recorded pIC50 for input NCCC[C@H](NC(=O)[C@H](Cc1ccccc1)NC(N)=O)C(=O)N1CCC[C@H]1C(=O)N[C@H](CC1CCCCC1)C(=O)N[C@@H](Cc1csc2ccccc12)C(=O)N[C@@H](Cc1ccccc1)C(N)=O [Compound 128, H2N—CO-Phe-Orn-Pro-cha-Bta-Phe-NH2] ({Phe(Nα-CONH2)}-[Orn]P[dCha][Bta]F-NH2)
Ans. 7.30 to 7.70

Qu. # return recorded pIC50 for input CC(=O)N[C@@H](Cc1ccccc1)C(=O)N[C@@H](CCCN)C(=O)N1CCC[C@H]1C(=O)N[C@H](CC1CCCCC1)C(=O)N[C@@H](Cc1ccccc1C(F)(F)F)C(=O)N[C@@H](Cc1ccccc1)C(N)=O [Compound 262, Ac-Phe-Orn-Pro-cha-Otf-Phe-NH2] (Ac-F[Orn]P[dCha][Phe(2-CF3)]F-NH2)
Ans. 6.70 to 7.30

Qu. # return recorded pIC50 for input CC(=O)N[C@@H](CCCNC(N)=O)C(=O)N[C@@H](Cc1ccccc1)C(=O)N[C@@H](CCCN)C(=O)N1CC[C@H]1C(=O)N[C@H](CC1CCCCC1)C(=O)N[C@@H](Cc1csc2ccccc12)C(=O)N[C@@H](Cc1ccccc1)C(N)=O [Compound 153, Ac-Cit-Phe-Orn-Aze-cha-Bta-Phe-NH2] (Ac-[Cit]F[Orn][Aze][dCha][Bta]F-NH2)
Ans. 7.30 to 7.70

Qu. # return recorded pIC50 for input CC(=O)N[C@@H](Cc1ccccc1)C(=O)N[C@@H](CCCN)C(=O)N1CCC[C@H]1C(=O)N[C@H](CC1CCCCC1)C(=O)N[C@@H](Cc1csc2ccccc12)C(=O)N[C@@H](Cc1cccs1)C(N)=O [Compound 261, Ac-Phe-Orn-Pro-cha-Bta-Thi-NH2] (Ac-F[Orn]P[dCha][Bta][2Thi]-NH2)
Ans. 7.70 to 8.00

* * *

Quick reference: pEC50 of the listed items.
molecular target: human C5aR(CD88) (Homo sapiens, UniProt P21730); construct: expressed in transfected cells; host or cells: rat basophilic leukemia cells (RBL); assay: Determination of EC50-values in an enzyme release assay (agonistic activity); type: cell-based; conditions: agonistic activity, no C5a added; read-out: EC50
Sequence (P21730 whole entry): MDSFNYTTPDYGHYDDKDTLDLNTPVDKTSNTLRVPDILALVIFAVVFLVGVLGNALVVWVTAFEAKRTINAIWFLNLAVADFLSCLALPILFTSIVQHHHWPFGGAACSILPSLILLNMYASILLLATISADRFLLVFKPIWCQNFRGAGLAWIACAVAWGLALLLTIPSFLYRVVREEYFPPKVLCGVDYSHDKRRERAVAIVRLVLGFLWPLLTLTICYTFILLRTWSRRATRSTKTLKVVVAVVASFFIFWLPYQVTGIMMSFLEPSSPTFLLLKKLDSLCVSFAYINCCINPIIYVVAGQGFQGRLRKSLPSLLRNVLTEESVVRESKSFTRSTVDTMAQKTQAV
pEC50: −log10 of the molar value. Positions of bridges follow the written chain, without caps; N, C: chain ends. Non-standard residues stand in square brackets, D forms with d. Residues, ends and D or L forms follow the SMILES beside them. Dip = N[C@H](C(=O)O)C(c1ccccc1)c1ccccc1; dCha = N[C@H](CC1CCCCC1)C(=O)O; Nle = CCCC[C@H](N)C(=O)O; Orn = NCCC[C@H](N)C(=O)O

1. CC(=O)N[C@@H](Cc1ccccc1)C(=O)N[C@@H](CCCN)C(=O)N1CCC[C@H]1C(=O)N[C@H](CC1CCCCC1)C(=O)N[C@@H](Cc1c[nH]c2ccccc12)C(=O)N[C@@H](Cc1ccccc1)C(N)=O [Compound 61, Ac-Phe-Orn-Pro-cha-Trp-Phe-NH2] (Ac-F[Orn]P[dCha]WF-NH2): < 4.00

Qu. # return recorded pEC50 for input CCCC[C@@H]1NC(=O)[C@H](Cc2c[nH]c3ccccc23)NC(=O)[C@@H](CC2CCCCC2)NC(=O)[C@@H]2CCCN2C(=O)[C@@H](NC(=O)[C@@H](N)Cc2ccccc2)CCCNC1=O [Compound 42, H-Phe-[Orn-Pro-cha-Trp-Nle]] (H-F[Orn]P[dCha]W[Nle]; lactam 2-C)
Ans. < 5.84

Qu. # return recorded pEC50 for input CC(=O)N[C@H](C(=O)N[C@@H](CCCN)C(=O)N1CCC[C@H]1C(=O)N[C@H](CC1CCCCC1)C(=O)N[C@@H](Cc1c[nH]c2ccccc12)C(=O)N[C@@H](Cc1ccccc1)C(N)=O)C(c1ccccc1)c1ccccc1 [Compound 71, Ac-Ebw-Orn-Pro-cha-Trp-Phe-NH2] (Ac-[Dip][Orn]P[dCha]WF-NH2)
Ans. < 4.00

* * *

Quick reference: IC50 of the listed items.
biological target: human C5aR(CD88) (Homo sapiens, UniProt P21730); construct: expressed in transfected cells; host or cells: rat basophilic leukemia cells (RBL); assay: Determination of the IC50 value in an enzyme release assay (functional assay, antagonistic activity); assay type: cell-based; conditions: antagonistic activity; IC50 group in enzyme release assay, RBL cells expressing human C5aR(CD88); read-out: activity (group)
Starred links: 1 amine or outer side, 2 acyl side, 3 side chain; linkers in the order of their positions; H or OH if unused. Positions of bridges follow the written chain, without caps; N, C: chain ends. Non-standard residues stand in square brackets, D forms with d. Residues, ends and D or L forms follow the SMILES beside them. dβ3hPhg = O=C(C[C@H](N[*:1])c1ccccc1)[*:2]; Phe(4-F) = N[C@@H](Cc1ccc(F)cc1)C(=O)O; Bta = N[C@@H](Cc1csc2ccccc12)C(=O)O; Hyp = O=C(O)[C@@H]1C[C@@H](O)CN1; d(hLeu) = CC(C)CC[C@@H](N)C(=O)O; hArg = N=C(N)NCCCC[C@H](N)C(=O)O; 3Pal = N[C@@H](Cc1cccnc1)C(=O)O; Cit = NC(=O)NCCC[C@H](N)C(=O)O; dCha = N[C@H](CC1CCCCC1)C(=O)O; Nle = CCCC[C@H](N)C(=O)O; Orn = NCCC[C@H](N)C(=O)O; Pra = C#CC[C@H](N)C(=O)O

Example cases with answers are listed next.
1) CC(=O)N[C@@H](Cc1ccc(F)cc1)C(=O)N[C@@H](CCCN)C(=O)N1CCC[C@H]1C(=O)N[C@H](CCC(C)C)C(=O)N[C@@H](Cc1csc2ccccc12)C(=O)N[C@@H](Cc1ccccc1)C(N)=O [Compound 170, Ac-Pff-Orn-Pro-hle-Bta-Phe-NH2] (Ac-[Phe(4-F)][Orn]P[d(hLeu)][Bta]F-NH2): 50 to 200 nM
2) CC(=O)N[C@@H](Cc1ccccc1)C(=O)N[C@@H](Cc1cccnc1)C(=O)N1CCC[C@H]1C(=O)N[C@H](CC1CCCCC1)C(=O)N[C@@H](Cc1csc2ccccc12)C(=O)N[C@@H](Cc1ccccc1)C(N)=O [Compound 124, Ac-Phe-Mpa-Pro-cha-Bta-Phe-NH2] (Ac-F[3Pal]P[dCha][Bta]F-NH2): 50 to 200 nM
3) CCCC[C@@H]1NC(=O)[C@H](Cc2c[nH]c3ccccc23)NC(=O)[C@@H](CCC(C)C)NC(=O)[C@@H]2C[C@@H](O)CN2C(=O)[C@@H](NC(=O)C[C@H](N)c2ccccc2)CCCNC1=O [Compound 344, H-Eby-[Orn-Hyp-hle-Trp-Nle]] (dβ3hPhg-[Orn][Hyp][d(hLeu)]W[Nle]; lactam 1-C): 50 to 200 nM
4) CC(C)CC[C@@H](NC(=O)[C@@H]1CCCN1C(=O)[C@H](CCCNC(N)=O)NC(=O)[C@@H](N)Cc1ccccc1)C(=O)N[C@@H](Cc1csc2ccccc12)C(=O)N[C@@H](Cc1ccccc1)C(N)=O [Compound 391, H-Phe-Cit-Pro-hle-Bta-Phe-NH2] (H-F[Cit]P[d(hLeu)][Bta]F-NH2): 50 to 200 nM
5) CC(=O)N[C@@H](Cc1ccccc1)C(=O)N[C@@H](CCCCNC(=N)N)C(=O)N1CCC[C@H]1C(=O)N[C@H](CC1CCCCC1)C(=O)N[C@@H](Cc1csc2ccccc12)C(=O)N[C@@H](Cc1ccccc1)C(N)=O [Compound 121, Ac-Phe-Har-Pro-cha-Bta-Phe-NH2] (Ac-F[hArg]P[dCha][Bta]F-NH2): 20 to 50 nM
6) C#CC[C@@H]1NC(=O)[C@H](Cc2c[nH]c3ccccc23)NC(=O)[C@@H](CC2CCCCC2)NC(=O)[C@@H]2CCCN2C(=O)[C@@H](NC(=O)[C@H](Cc2ccccc2)NC(C)=O)CCCNC1=O [Compound 35, Ac-Phe-[Orn-Pro-cha-Trp-Eag]] (Ac-F[Orn]P[dCha]W[Pra]; lactam 2-C): 5 to 10 nM

Please look at the following compound next.
Qu. # return recorded IC50 for input CCCC[C@@H]1NC(=O)[C@H](Cc2ccc(F)cc2)NC(=O)[C@@H](CCC(C)C)NC(=O)[C@@H]2C[C@@H](O)CN2C(=O)[C@@H](NC(=O)[C@@H](N)Cc2ccccc2)CCCNC1=O [Compound 365, H-Phe-[Orn-Hyp-hle-Pff-Nle]] (H-F[Orn][Hyp][d(hLeu)][Phe(4-F)][Nle]; lactam 2-C)
Ans. 50 to 200 nM
